Origin of measurements: paper PMC9686516

# experimental details: Colistin pharmacokinetics in plasma after nebulized CMS in ventilated VARI patients
# Format: in vivo, human
# measurement setup: human, inhaled or intranasal, 2 mIU, 1 h post-nebulization, VMN, n = 18, 2 mIU CMS inhaled, median (IQR), read-out: Ccolistin, plasma
Where a SMILES comes first, the peptide text is derived from it. Bridges are numbered along the chain shown (N, C = ends). [ ]: non-standard residue; d: D form. The star is where a group is joined. X1 = CC[C@H](C)CCCCC(=O)*; Dab = NCC[C@H](N)C(=O)O
assay metric: level at 1 h (ng/mL)

compound	assay metric	output unit	measured
CC[C@H](C)CCCCC(=O)N[C@@H](CCN)C(=O)N[C@H](C(=O)N[C@@H](CCN)C(=O)N[C@H]1CCNC(=O)[C@H]([C@@H](C)O)NC(=O)[C@H](CCN)NC(=O)[C@H](CCN)NC(=O)[C@H](CC(C)C)NC(=O)[C@@H](CC(C)C)NC(=O)[C@H](CCN)NC1=O)[C@@H](C)O [colistin] (X1-[Dab]T[Dab][Dab][Dab][dL]L[Dab][Dab]T; lactam 4-C)	level at 1 h	ng/mL	2300

---

# experimental details: Colistin pharmacokinetics in epithelial lining fluid (ELF) after nebulized CMS in ventilated VARI patients
# Format: in vivo, human
# measurement setup: human, epithelial lining fluid (ELF), inhaled or intranasal, 2 mIU, ELF; 8 h post-nebulization; VMN, n = 18; 2 mIU CMS inhaled; median (IQR); read-out: Ccolistin,ELF
Where a SMILES comes first, the peptide text is derived from it. Bridges are numbered along the chain shown (N, C = ends). [ ]: non-standard residue; d: D form. The star is where a group is joined. X1 = CC[C@H](C)CCCCC(=O)*; Dab = NCC[C@H](N)C(=O)O

compound	level at 8 h / ng/mL
CC[C@H](C)CCCCC(=O)N[C@@H](CCN)C(=O)N[C@H](C(=O)N[C@@H](CCN)C(=O)N[C@H]1CCNC(=O)[C@H]([C@@H](C)O)NC(=O)[C@H](CCN)NC(=O)[C@H](CCN)NC(=O)[C@H](CC(C)C)NC(=O)[C@@H](CC(C)C)NC(=O)[C@H](CCN)NC1=O)[C@@H](C)O [colistin] (X1-[Dab]T[Dab][Dab][Dab][dL]L[Dab][Dab]T; lactam 4-C)	1420

---

# experimental details: Colistin pharmacokinetics in plasma after nebulized CMS in ventilated VARI patients
# Type: in vivo, human
# measurement setup: human, inhaled or intranasal, 2 mIU, JN, n = 6, 2 mIU CMS inhaled, median (IQR)
Where a SMILES comes first, the peptide text is derived from it. Bridges are numbered along the chain shown (N, C = ends). [ ]: non-standard residue; d: D form. The star is where a group is joined. X1 = CC[C@H](C)CCCCC(=O)*; Dab = NCC[C@H](N)C(=O)O
assay metric: Tmax (h)

compound	measured
CC[C@H](C)CCCCC(=O)N[C@@H](CCN)C(=O)N[C@H](C(=O)N[C@@H](CCN)C(=O)N[C@H]1CCNC(=O)[C@H]([C@@H](C)O)NC(=O)[C@H](CCN)NC(=O)[C@H](CCN)NC(=O)[C@H](CC(C)C)NC(=O)[C@@H](CC(C)C)NC(=O)[C@H](CCN)NC1=O)[C@@H](C)O [colistin] (X1-[Dab]T[Dab][Dab][Dab][dL]L[Dab][Dab]T; lactam 4-C)	2.2

---

# experimental details: Colistin pharmacokinetics in plasma after nebulized CMS in ventilated VARI patients
# Type: in vivo, human
# measurement setup: human, inhaled or intranasal, VMN, n = 18, 2 mIU CMS inhaled, t1/2 = 0.693/λ, mean (SD), SD
# Protocol: The study population consisted of 24 critically ill adult patients, admitted to the intensive care unit of the First Department of Pulmonology of the National and Kapodistrian University of Athens between June 2014 and November 2017. […] Colistin concentrations in plasma (Ccolistin,plasma) and epithelial lining fluid (Ccolistin,ELF) were measured through high performance liquid chromatography (HPLC)-fluorescence analysis. […]
Where a SMILES comes first, the peptide text is derived from it. Bridges are numbered along the chain shown (N, C = ends). [ ]: non-standard residue; d: D form. The star is where a group is joined. X1 = CC[C@H](C)CCCCC(=O)*; Dab = NCC[C@H](N)C(=O)O
assay metric: half-life (h)

compound	measured
CC[C@H](C)CCCCC(=O)N[C@@H](CCN)C(=O)N[C@H](C(=O)N[C@@H](CCN)C(=O)N[C@H]1CCNC(=O)[C@H]([C@@H](C)O)NC(=O)[C@H](CCN)NC(=O)[C@H](CCN)NC(=O)[C@H](CC(C)C)NC(=O)[C@@H](CC(C)C)NC(=O)[C@H](CCN)NC1=O)[C@@H](C)O [colistin] (X1-[Dab]T[Dab][Dab][Dab][dL]L[Dab][Dab]T; lactam 4-C)	2.4

---

# experimental details: Colistin pharmacokinetics in plasma after nebulized CMS in ventilated VARI patients
# Assay type: in vivo, human
# measurement setup: human, inhaled or intranasal, 2 mIU, 2 h post-nebulization, JN, n = 6, 2 mIU CMS inhaled, median (IQR), read-out: Ccolistin, plasma
# Method: The study population consisted of 24 critically ill adult patients, admitted to the intensive care unit of the First Department of Pulmonology of the National and Kapodistrian University of Athens between June 2014 and November 2017. […] Colistin concentrations in plasma (Ccolistin,plasma) and epithelial lining fluid (Ccolistin,ELF) were measured through high performance liquid chromatography (HPLC)-fluorescence analysis. […]
Where a SMILES comes first, the peptide text is derived from it. Bridges are numbered along the chain shown (N, C = ends). [ ]: non-standard residue; d: D form. The star is where a group is joined. X1 = CC[C@H](C)CCCCC(=O)*; Dab = NCC[C@H](N)C(=O)O

molecule	output unit	level at 2 h
CC[C@H](C)CCCCC(=O)N[C@@H](CCN)C(=O)N[C@H](C(=O)N[C@@H](CCN)C(=O)N[C@H]1CCNC(=O)[C@H]([C@@H](C)O)NC(=O)[C@H](CCN)NC(=O)[C@H](CCN)NC(=O)[C@H](CC(C)C)NC(=O)[C@@H](CC(C)C)NC(=O)[C@H](CCN)NC1=O)[C@@H](C)O [colistin] (X1-[Dab]T[Dab][Dab][Dab][dL]L[Dab][Dab]T; lactam 4-C)	ng/mL	300

---

# experimental details: Colistin pharmacokinetics in plasma after nebulized CMS in ventilated VARI patients
# Assay type: in vivo, human
# measurement setup: human, inhaled or intranasal, 2 mIU, VMN, n = 18, 2 mIU CMS inhaled, median (IQR)
Where a SMILES comes first, the peptide text is derived from it. Bridges are numbered along the chain shown (N, C = ends). [ ]: non-standard residue; d: D form. The star is where a group is joined. X1 = CC[C@H](C)CCCCC(=O)*; Dab = NCC[C@H](N)C(=O)O
assay metric: Tmax (h)

molecule	assay metric	measured
CC[C@H](C)CCCCC(=O)N[C@@H](CCN)C(=O)N[C@H](C(=O)N[C@@H](CCN)C(=O)N[C@H]1CCNC(=O)[C@H]([C@@H](C)O)NC(=O)[C@H](CCN)NC(=O)[C@H](CCN)NC(=O)[C@H](CC(C)C)NC(=O)[C@@H](CC(C)C)NC(=O)[C@H](CCN)NC1=O)[C@@H](C)O [colistin] (X1-[Dab]T[Dab][Dab][Dab][dL]L[Dab][Dab]T; lactam 4-C)	Tmax	1.5

---

# experimental details: Colistin pharmacokinetics in epithelial lining fluid (ELF) after nebulized CMS in ventilated VARI patients
# Format: in vivo, human
# measurement setup: human, epithelial lining fluid (ELF), inhaled or intranasal, 2 mIU, ELF; 6 h post-nebulization; JN, n = 6; 2 mIU CMS inhaled; median (IQR); read-out: Ccolistin,ELF
Where a SMILES comes first, the peptide text is derived from it. Bridges are numbered along the chain shown (N, C = ends). [ ]: non-standard residue; d: D form. The star is where a group is joined. X1 = CC[C@H](C)CCCCC(=O)*; Dab = NCC[C@H](N)C(=O)O

compound	level at 6 h [ng/mL]
CC[C@H](C)CCCCC(=O)N[C@@H](CCN)C(=O)N[C@H](C(=O)N[C@@H](CCN)C(=O)N[C@H]1CCNC(=O)[C@H]([C@@H](C)O)NC(=O)[C@H](CCN)NC(=O)[C@H](CCN)NC(=O)[C@H](CC(C)C)NC(=O)[C@@H](CC(C)C)NC(=O)[C@H](CCN)NC1=O)[C@@H](C)O [colistin] (X1-[Dab]T[Dab][Dab][Dab][dL]L[Dab][Dab]T; lactam 4-C)	3300

---

# experimental details: Colistin pharmacokinetics in plasma after nebulized CMS in ventilated VARI patients
# Type: in vivo, human
# measurement setup: human, inhaled or intranasal, 2 mIU, 2 h post-nebulization, VMN, n = 18, 2 mIU CMS inhaled, median (IQR), read-out: Ccolistin, plasma
Where a SMILES comes first, the peptide text is derived from it. Bridges are numbered along the chain shown (N, C = ends). [ ]: non-standard residue; d: D form. The star is where a group is joined. X1 = CC[C@H](C)CCCCC(=O)*; Dab = NCC[C@H](N)C(=O)O
assay metric: level at 2 h (ng/mL)

molecule	measured
CC[C@H](C)CCCCC(=O)N[C@@H](CCN)C(=O)N[C@H](C(=O)N[C@@H](CCN)C(=O)N[C@H]1CCNC(=O)[C@H]([C@@H](C)O)NC(=O)[C@H](CCN)NC(=O)[C@H](CCN)NC(=O)[C@H](CC(C)C)NC(=O)[C@@H](CC(C)C)NC(=O)[C@H](CCN)NC1=O)[C@@H](C)O [colistin] (X1-[Dab]T[Dab][Dab][Dab][dL]L[Dab][Dab]T; lactam 4-C)	1700
